assay: in vitro; conditions: human, hela cells, % viability
Label True when viability at 28.5 h, 10 µM < 90%; otherwise False.

{"compound": "Nc1ncc(-c2cccc(F)c2)nc1NCC1CCOCC1 [CBK063860]", "answerLabel": "False"}
{"compound": "Cc1[nH]c2c(C)cccc2c1CC(=O)NC1CCCN(C)C1 (stereo not drawn) [CBK282485]", "answerLabel": "True"}
{"compound": "Cc1ccc(C(=O)Oc2cccc(NC(=O)c3ccco3)c2)cc1S(=O)(=O)N1CCOCC1 [CBK263211]", "answerLabel": "False"}
{"compound": "Cc1cc(NC(=O)C(C)SCc2cccc(C(F)(F)F)c2)no1 (stereo not drawn) [CBK306233]", "answerLabel": "False"}
{"compound": "CCCS(=O)(=O)NC1CC(C)(C)Cc2c1cnn2-c1ccc(F)cc1 (stereo not drawn) [CBK306770]", "answerLabel": "False"}
{"compound": "CCn1c(CN2CC(C)CC(C)C2)nc2c1c(=O)n(C)c(=O)n2C (stereo not drawn) [CBK306030]", "answerLabel": "True"}
{"compound": "O=C(Cc1ccccn1)NC(Cc1ccsc1)c1nccs1 (stereo not drawn) [CBK282821]", "answerLabel": "True"}

* * *

test: in vitro; settings: human, hela cells, % viability

{"compound": "CN1C2CCCC1CC(OC(=O)c1cccc3nc[nH]c13)C2 (stereo not shown)", "viability at 28.5 h, 10 µM / %": 99.3}
{"compound": "CC1(C(=O)O)CC(C)(C(=O)O)CC(C)(C(=O)O)C1 (stereo not shown)", "viability at 28.5 h, 10 µM / %": 91.8}
{"compound": "CCC(c1nc2ccccc2c(=O)n1-c1cccnc1)N1C(=O)c2ccccc2C1=O (stereo not shown)", "viability at 28.5 h, 10 µM / %": 99.1}
{"compound": "CC1(C)C(=O)Nc2ccccc2N1C(=O)COc1ncnc2sc3c(c12)CCC3", "viability at 28.5 h, 10 µM / %": 89.9}
{"compound": "Cc1n[nH]c(-c2ccccc2NS(=O)(=O)c2cnn(C(C)C)c2)n1", "viability at 28.5 h, 10 µM / %": 84.1}
{"compound": "Cc1nn(C)cc1-c1cncn1C(CCN(C)C)c1ccccc1 (stereo not shown)", "viability at 28.5 h, 10 µM / %": 92.3}
{"compound": "Cc1nc2cc(OCc3ccc(Cn4ccn(C(=O)CCC5CCCC5)c4=O)cc3)ccc2s1", "viability at 28.5 h, 10 µM / %": 115}
{"compound": "O=C(C1CC1)N1CCCC1c1nc(-c2ccc(F)cc2)n[nH]1 (stereo not shown)", "viability at 28.5 h, 10 µM / %": 102}
{"compound": "N=C1OC2CSCC2N1C(=O)Cc1ccccc1Cl (stereo not shown)", "viability at 28.5 h, 10 µM / %": 106}
{"compound": "Cc1nc(N2CCCCC2)ncc1C(=O)NCCSc1nncn1C", "viability at 28.5 h, 10 µM / %": 81.1}
{"compound": "COc1cc(Cn2c(-c3ccc(O)c(OC)c3)nc3ccccc32)ccc1O", "viability at 28.5 h, 10 µM / %": 100}
{"compound": "O=S1(=O)CCN(CC2COc3ccccc3O2)CC1 (stereo not shown)", "viability at 28.5 h, 10 µM / %": 88.5}
{"compound": "CCCCCn1c(-c2ccccc2)n[nH]c1=O", "viability at 28.5 h, 10 µM / %": 83.3}
{"compound": "CN1CCN(c2cc(CNC(=O)c3cc(=O)[nH]c4ccccc34)ccn2)CC1", "viability at 28.5 h, 10 µM / %": 101}
{"compound": "COc1cc(-c2cnc3[nH]c(=O)n(C4CCOCC4)c3n2)cc(OC)c1OC", "viability at 28.5 h, 10 µM / %": 94.6}
{"compound": "O=C(CCCC1CC1)N1CCn2c(nnc2-c2cncc(Br)c2)C1", "viability at 28.5 h, 10 µM / %": 96.4}
{"compound": "C=C(C)Cn1c(SCC(C)C)nnc1-c1cccs1", "viability at 28.5 h, 10 µM / %": 96.5}
{"compound": "COc1ccc2oc(C(=O)N(C)CC(C)OC)c(C)c2c1 (stereo not shown)", "viability at 28.5 h, 10 µM / %": 94.4}
{"compound": "CC(C)c1ccc(C(C)NC(=O)Cn2cc(C(=O)NC3CCCC3)ccc2=O)cc1 (stereo not shown)", "viability at 28.5 h, 10 µM / %": 103}
{"compound": "CCOC(=O)N1CCC(NC(=O)N(CCCN(C)C)Cc2ccc3c(c2)OCO3)CC1", "viability at 28.5 h, 10 µM / %": 91}
{"compound": "O=C(Nc1nc(-c2ccccc2)cs1)c1ccc(N2C(=O)CCC2=O)cc1", "viability at 28.5 h, 10 µM / %": 97.7}
{"compound": "O=C(NCCN1CCOCC1)c1sc2cc(F)ccc2c1Cl", "viability at 28.5 h, 10 µM / %": 120}
{"compound": "O=S(=O)(Nc1ccc2[nH]ccc2c1)c1cc(C(F)(F)F)cc(C(F)(F)F)c1", "viability at 28.5 h, 10 µM / %": 102}
{"compound": "O=S(=O)(c1ccc(Cl)s1)N1CCN(c2ccccn2)CC1", "viability at 28.5 h, 10 µM / %": 110}
{"compound": "COC(=O)c1ccc(CN2CC3CCCN3C[C@@H]2C)cc1 (stereo partly shown)", "viability at 28.5 h, 10 µM / %": 111}
{"compound": "O=C(COC(=O)c1ccc2c(c1)C(=O)N(c1ccc(Oc3ccccc3)cc1)C2=O)c1ccc(Br)cc1", "viability at 28.5 h, 10 µM / %": 105}
{"compound": "O=C(NCCCCNC(=O)c1scc(-c2ccccc2)c1C(=O)O)c1scc(-c2ccccc2)c1C(=O)O", "viability at 28.5 h, 10 µM / %": 107}
{"compound": "Cc1cc2nccc([C@H]3CC[C@H](CNC(=O)C(C)C)CC3)n2n1", "viability at 28.5 h, 10 µM / %": 94.9}
{"compound": "COc1ccc(CCNC(=O)N2CCC(C(=O)O)CC2)cc1OC", "viability at 28.5 h, 10 µM / %": 110}
{"compound": "CSCC[C@H](NC(=O)OC(C)(C)C)C(=O)NCc1csc(-c2ccccc2)n1", "viability at 28.5 h, 10 µM / %": 88}
{"compound": "O=C(CSc1nc2cccnc2[nH]1)Nc1cccc(F)c1", "viability at 28.5 h, 10 µM / %": 89.3}
{"compound": "O=c1/c(=C/c2ccc3c(c2)OCO3)sc2nc3cc(Br)cnc3n12", "viability at 28.5 h, 10 µM / %": 106}
{"compound": "CC(C)Nc1cccnc1N1CCN(C(=O)c2cc3cc(NS(=O)(=O)CCc4ccncc4)ccc3[nH]2)CC1", "viability at 28.5 h, 10 µM / %": 95.8}
{"compound": "O=C(Nc1ccc(OC(F)F)cc1)Nc1ncc(Br)c2cccnc12", "viability at 28.5 h, 10 µM / %": 115}
{"compound": "CCOc1ccc2[nH]c(=O)c(/C=C3\\SC(=S)N(CCC(=O)O)C3=O)cc2c1", "viability at 28.5 h, 10 µM / %": 89.7}
{"compound": "CC(C)c1nccn1-c1ccc(NC(=O)CCCn2ccnc2)cc1", "viability at 28.5 h, 10 µM / %": 93}
{"compound": "COc1ccc(-c2cc(C(F)(F)F)nc(SCC(=O)NN3CCN(C)CC3)n2)cc1", "viability at 28.5 h, 10 µM / %": 96.5}
